Test: Quantitative High-Throughput drug screen in 47 multiple myeloma cell lines against the NCATS MIPE library collection: Karpas417_ECACC cell viability assay (AID 1918961)
Conditions: Karpas417 myeloma viability, CellTiter-Glo ATP luminescence, 48 h
Records with an inconclusive call do not appear. The source made the active and inactive calls. Calls come from the whole dose curve; as a rule, active = well fitted cell-killing curve with a large enough effect; inconclusive = small, poorly fitted or top-dose-only effect, or effect the other way; inactive = no such curve, though single readings can be large or run the other way.
Outcomes: Y for active, N for inactive

CC(C)NCC(O)c1ccc(O)c(O)c1 (configuration not stated)	Y
CN1C(C(=O)Nc2ccccn2)=C(O)c2ccccc2S1(=O)=O	N
CCOC(=O)Nc1ccc(NCc2ccc(F)cc2)nc1N	N
NC(=O)NO	Y
CC#C[C@]1(O)CC[C@H]2[C@@H]3CCC4=CC(=O)CCC4=C3[C@@H](c3ccc(N(C)C)cc3)C[C@@]21C	Y
CN1CCC(=C2c3ccccc3C=Cc3ccccc32)CC1	N
COc1cc2c(c(OC)c1OC)-c1ccc(OC)c(=O)cc1[C@@H](NC(C)=O)CC2	Y
Cc1cn([C@H]2C=C[C@@H](CO)O2)c(=O)[nH]c1=O	Y
CS(=O)(=O)CCNCc1ccc(-c2ccc3ncnc(Nc4ccc(OCc5cccc(F)c5)c(Cl)c4)c3c2)o1	Y
CN1CCN(CCCN2c3ccccc3Sc3ccc(Cl)cc32)CC1	Y
CN1CCC(=C2c3ccccc3CC(=O)c3sccc32)CC1	N
Nc1nc2c(ncn2COC(CO)CO)c(=O)[nH]1	Y

----------
Assay: qHTS for identification of novel therapeutic agents for treatment of microphthalmiaassociated transcription factor (MiT) renal cell carcinoma (RCC) (AID 1963991);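 note: curves scaled with 100% = DMSO viability and 0% = empty wells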
Details: TFE3-RCC viability, CellTiter-Glo, 48 h; measured here: UOK145 Z-AUC; stronger effect = lower value
Results filed as inconclusive are left out.
readoutName: z-score

CCOC(=O)Nc1ccc(NCc2ccc(F)cc2)nc1N	0.317
CC(=O)OCC(CCn1cnc2cnc(N)nc21)COC(C)=O	1.13
NCCS(=O)(=O)O	0.716
O=C(c1ccc(F)cc1)C1CCN(CCn2c(=O)[nH]c3ccccc3c2=O)CC1	0.595
CC[C@@]1(O)C(=O)OCc2c1cc1n(c2=O)Cc2cc3c(CN(C)C)c(O)ccc3nc2-1	-1.63
CC(C(=O)O)c1cccc(C(=O)c2ccccc2)c1 (stereo not given)	0.0276
NC(=O)OCC(COC(N)=O)c1ccccc1	-0.0858
CCC1(C)CC(=O)NC1=O (stereo not given)	0.715
COc1nc(C)nc(Cl)c1NC1=NCCN1	0.251
CN1C2CCC1CC(OC(=O)C(CO)c1ccccc1)C2 (stereo not given)	0.45
COc1ccccc1OCCNCC(O)COc1cccc2[nH]c3ccccc3c12 (stereo not given)	0.158
CCc1cccc2c3c([nH]c12)C(CC)(CC(=O)O)OCC3 (stereo not given)	0.577
CCN1CCCC1CNC(=O)c1cc(S(=O)(=O)CC)c(N)cc1OC (stereo not given)	0.815
NCCc1cnc[nH]1	0.389
COc1ccc(CCN(C)CCCC(C#N)(c2ccc(OC)c(OC)c2)C(C)C)cc1OC (stereo not given)	0.327

----------
Test system: FAB9
Assay: qHTS profiling for inhibitors of Plasmodium falciparum proliferation (AID 504749); note: nearly all actives have a fitted effect of over 60% in size
Conditions: P. falciparum in erythrocytes, SYBR Green DNA, 72 h; series mostly up to 28.7 µM
Records with an inconclusive call do not appear. The source made the active and inactive calls. Calls come from the whole dose curve; as a rule, active = well fitted inhibition curve with a large enough effect; inconclusive = small, poorly fitted or top-dose-only effect; inactive = flat fitted curve, though single readings scatter.
Outcomes: t (active), f (inactive)

CN(CCOc1ccc(NS(C)(=O)=O)cc1)CCc1ccc(NS(C)(=O)=O)cc1	f
COc1nc(C)nc(Cl)c1NC1=NCCN1	f
CC(=O)OCC(CCn1cnc2cnc(N)nc21)COC(C)=O	f
CC(C)(C)C(=O)Oc1ccc(S(=O)(=O)Nc2ccccc2C(=O)NCC(=O)O)cc1	f
Clc1ccc2nsnc2c1NC1=NCCN1	f
CN(Cc1cnc2nc(N)nc(N)c2n1)c1ccc(C(=O)N[C@@H](CCC(=O)O)C(=O)O)cc1	t
Cc1ccc(-c2cc(C(F)(F)F)nn2-c2ccc(S(N)(=O)=O)cc2)cc1	f
CN(C)c1nc(N(C)C)nc(N(C)C)n1	f
Cc1cc(C(C)(C)C)cc(C)c1CC1=NCCN1	f
COc1ccccc1N1CCN(CC(O)COc2cccc3ccccc23)CC1 (stereo unspecified)	f
Cc1cn([C@H]2C[C@H](N=[N+]=[N-])[C@@H](CO)O2)c(=O)[nH]c1=O	f
